Assay: label from the status in PepcDB records
PROPERTY NAME: protein production

Past entries and their recorded results:
SEQUENCE STRING	protein production
FMPTEKDVKTLQLTMKEYEAKDDWQLYLWKENEDFVGIMGIVKKENQVLEIQHLSVNPSHRHVGIGTKMVQELKSKFLEFTICGNEQTASFCEKC	failed
MKVAIMGAGAVGCYYGGMLARAGHEVILIARPQHVQAIEATGLRLETQSFDEQVKVSASSDPSAVQGADLVLFCVKSTDTQSAALAMKPALAKSALVLSLQNGVENADTLRSLLEQEVAAAVVYVATEMAGPGHVRHHGRGELVIEPTSHGANLAAIFAAAGVPVETSDNVRGALWAKLILNCAYNALSAITQLPYGRLVRGEGVEAVMRDVMEECFAVARAEGVKLPDDVALAIRRIAETMPRQSSSTAQDLARGKRSEIDHLNGLIVRRGDALGIPVPANRVLHALVRLIEDKQQHG	not failed
MSSVSDVAFFMEVVKAGTLSGAAQELGVSTAAVSRRLANLEVRLGIRLLNRTTRRAAVTYEGELYLAEGKKILGELEELEQRLASAHSVPKGLLRVNATFGFGRQFIAPAIADFVELHPDVDVQLSLSDRPVNLIEDGFDVCIRFGDLPDARLTSRKIACNRRLLCASPGYLERFGIPASPMDLQRHRCIVIRESDETYGAWHLYSGAAQANVKVRGTVSTNDGEVAVDWALRGLGILLRSEWNVAPYLRSGRLREVLGDWRFPPADIHAVYPMKSNLSAKVRAFVSHLDKHFEPYRPRAEGKSRW	failed
EPEKLGQALTEVYAKANSFTVSSVAAPSWLHRFIIGKKGQNLAKITQQMPKVHIEFTEGEDKITLEGPTEDVSVAQEQIEGMVKDLINR	not failed

// each sequence listed below needs its protein production
1. MNEIYDREQMIKLLDLAKNTEMELPINLAIGLGLRISEVLGLTWDNIDFEENTITVNKITSRINGSVILKEPKTESSVRKISSPKELMSLLKEYKIKQNKNLLKSSIRNNNNLLFFNKKCEPIAEDVMSKKFKRFLEKNELPHIRFHDLRHSHVTLLINSKVPIKVISERVGHSNISTTLSVYSHVLKEMDKEASDKISESLFNANLEHHHHHH
2. MDIITKMQVDVPRETVFEAFVDPEKIGGFWFSSSSERWEQGKTITLRYEEYDAELNINIERVEDNQLIAFTWGAHPITIQFEESEAGTVVTTTEKDFDTQDVKQLLGQKEGWVYMLSCLKVYLEHGVTIRAAILLEHHHHHH
3. RSTIGAGQKVNVEFVSANPTGPMHVGHVRGAVVGDALARLLAYAGWNVTREYYINDGGAQVDVLARSAFERYREAHGLEPEIREGLYPGDYLIPVGEALKAKYGDSLLDKGEQHWLTEVREFATEMMMQMIREDLAALGVEMDVYSSEKALYGTGKIEAALDRLKEMDLIYEGVLEPPKGKTPEDWEPREQTLFRSTAHGDDVDRPVKKSDGSWTYFAPDIAYHYDKVTRGFDQLIDIFGADHGGYVKRMKAAVAALSAGRVPLDIKLIQLVKLWKNGEPFKMSKRAGTYVTLRDVVEQVGTDVTRFVMLTRKNDATLDFDFDKVLEQSKENPVFYVQYANARINSVLRKAREQGMDVSDA

["not failed", "failed", "failed"]
